tested on: ACHN; assay: NCI tumour cell line growth inhibition, 48 h
Calls of active or inactive are those of the source. No stated cut-off is given here; in the data, active = GI50 up to about 1.1 µM and inactive = higher.
This listing pairs compounds with measured GI50.

compound: CO[C@@H]1C[C@H]2[C@@H]3CC[C@H]([C@@H](C)COC(C)=O)[C@@]3(C)CC[C@@H]2[C@@]2(C)CC[C@H]3C[C@]312
experimentalSystem: ACHN
GI50: 16.6 µM (inactive)
//
compound: S=C1Cc2c([nH]c3ccccc23)-c2ccccc2N1
experimentalSystem: ACHN
GI50: 23.6 µM (inactive)
//
compound: O=C(O)C1CCCCN1C(=O)c1ccccc1 (stereo not given)
experimentalSystem: ACHN
GI50: > 100 µM (inactive)
//
compound: CC1(C)OC(=C(C#N)C#N)C(C#N)=C1/C=C/c1ccncc1
experimentalSystem: ACHN
GI50: 1.87 µM (inactive)
//
compound: CO/C(N)=C(C#N)/N=C/c1cccs1
experimentalSystem: ACHN
GI50: > 100 µM (inactive)
//
compound: CC(=O)c1ccc(Nc2c3c(nc4ccccc24)CCCC3)cc1
experimentalSystem: ACHN
GI50: 38.3 µM (inactive)
//
compound: Cc1cccc(C2SCc3nc4ccccc4n32)c1 (stereo not given)
experimentalSystem: ACHN
GI50: 24.3 µM (inactive)
//
compound: COc1ccc(/C=C(\Cl)c2ccc(OC)cc2)cc1
experimentalSystem: ACHN
GI50: > 100 µM (inactive)
//
compound: COc1ccc(C(OCC2OC(n3cc(C)c(=O)[nH]c3=O)CC2n2cc(Cn3cc(Cl)c(=O)[nH]c3=O)nn2)(c2ccccc2)c2ccccc2)cc1 (stereo not given)
experimentalSystem: ACHN
GI50: > 100 µM (inactive)
//
compound: C[C@@]1(O)C2C3CC4C5C3C1[C@](O)(C42)[C@H]5Br (stereo not given in full)
experimentalSystem: ACHN
GI50: > 100 µM (inactive)

Where do these numbers come from? They come from ChEMBL document CHEMBL1201862.
